- assay_system: Flt3 kinase (Homo sapiens, UniProt P36888)
- Construct: recombinant N-terminal 6×His-tagged Flt3 kinase domain construct expressed from baculovirus; 6xHis (N); made in house
- Sequence (P36888 610-943 limits assumed): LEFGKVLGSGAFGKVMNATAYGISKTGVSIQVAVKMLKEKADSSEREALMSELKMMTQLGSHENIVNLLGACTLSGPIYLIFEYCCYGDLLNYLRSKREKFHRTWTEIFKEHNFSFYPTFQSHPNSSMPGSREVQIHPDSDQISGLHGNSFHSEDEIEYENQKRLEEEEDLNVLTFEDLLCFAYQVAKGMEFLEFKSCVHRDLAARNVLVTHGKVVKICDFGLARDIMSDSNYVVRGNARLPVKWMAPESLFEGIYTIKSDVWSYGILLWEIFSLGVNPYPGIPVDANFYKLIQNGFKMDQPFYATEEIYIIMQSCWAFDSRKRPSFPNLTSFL
- protocol_description: Flt3 kinase assay (33P incorporation into Poly(Glu-Tyr))
- Assay type: biochemical
- run_conditions: 100 nM test compound; read-out: Inhibition at 100 nM (%) Flt-3
- Procedure: Inhibition of Flt3 kinase activity by compounds disclosed herein was quantified by measuring the amount of [^33P] incorporated into the substrate in the presence of a test compound. […] The plate was then sealed and counted using a TopCount scintillation detector (PerkinElmer). The percentage of inhibition rate of the test compound was calculated by dividing the retained radioactivity of the test sample with the retained radioactivity of the control sample and shown in Table 3.
Reported values of inhibition at 0.1 µM for individual entries
All answers are understood in %, so give the number only.

As a guide, the following entries are already answered.
- structure_notation: "CCS(=O)(=O)Nc1ccc2c(c1)/C(=C/c1[nH]c3c(c1CCC(=O)O)C(=O)CCC3)C(=O)N2"
  inhibition at 0.1 µM (%): -3.9
- structure_notation: "CCOC(=O)CCc1c(/C=C2\\C(=O)Nc3ccc(NC(=O)c4ccccc4)cc32)[nH]c2c1C(=O)CCC2"
  inhibition at 0.1 µM (%): 5.9
- structure_notation: "O=C(O)CCc1c(/C=C2\\C(=O)Nc3ccc(S(=O)(=O)Nc4ccc(F)c(Cl)c4)cc32)[nH]c2c1C(=O)CCCC2"
  inhibition at 0.1 µM (%): 7.3

### Prompt Fill blank: measured inhibition at 0.1 µM of the compound CCOC(=O)CCc1c(/C=C2\C(=O)Nc3ccc(NS(=O)(=O)c4ccccc4)cc32)[nH]c2c1C(=O)CCC2 is ____.
### Response 75.9

### Prompt Fill blank: measured inhibition at 0.1 µM of the compound CCOC(=O)CCc1c(/C=C2\C(=O)Nc3cc(F)ccc32)[nH]c2c1C(=O)CCC2 is ____.
### Response 82.2
